# target_desc: BuChE (Homo sapiens)
# Sequence (P06276 29-602): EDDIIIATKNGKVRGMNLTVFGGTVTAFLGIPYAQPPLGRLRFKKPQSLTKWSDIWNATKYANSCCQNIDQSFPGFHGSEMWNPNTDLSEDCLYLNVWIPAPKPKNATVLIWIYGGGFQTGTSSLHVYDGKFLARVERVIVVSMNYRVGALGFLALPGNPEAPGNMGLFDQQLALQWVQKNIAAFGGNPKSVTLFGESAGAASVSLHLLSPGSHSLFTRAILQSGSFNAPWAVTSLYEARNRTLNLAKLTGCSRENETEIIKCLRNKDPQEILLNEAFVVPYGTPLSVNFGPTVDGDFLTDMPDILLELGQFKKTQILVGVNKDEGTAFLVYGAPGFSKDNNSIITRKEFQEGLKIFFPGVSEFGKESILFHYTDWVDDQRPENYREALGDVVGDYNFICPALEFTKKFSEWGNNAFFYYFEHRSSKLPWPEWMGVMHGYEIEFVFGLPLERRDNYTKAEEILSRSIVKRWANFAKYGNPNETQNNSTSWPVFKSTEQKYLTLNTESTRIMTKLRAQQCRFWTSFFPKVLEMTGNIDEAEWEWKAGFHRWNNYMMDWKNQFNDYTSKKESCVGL
# method_notes: In vitro screening assay, BuChE inhibition
# Assay type: biochemical
# particulars: 10 μM
measure_name: BuChE I (%) 10 μM
Give the number; % is assumed, so skip it.

Below, 6 molecules whose answers are already recorded.
[
  {
    "molecule": "C[C@@H](c1cccc(OC(=O)N2CCN(C3=Nc4ccccc4Oc4ccc(Cl)cc43)CC2)c1)N(C)C [Compound 3, S-riva-amoxapine]",
    "units_text": "%",
    "BuChE I (%) 10 μM": 6
  },
  {
    "molecule": "C[C@@H](c1cccc(OC(=O)N2CC[C@@H](c3ccc(F)cc3)[C@H](COc3ccc4c(c3)OCO4)C2)c1)N(C)C [Compound 9A, S-riva-paroxetine]",
    "units_text": "%",
    "BuChE I (%) 10 μM": 4
  },
  {
    "molecule": "COCCCC/C(=N\\OCCNC(=O)Oc1cccc([C@H](C)N(C)C)c1)c1ccc(C(F)(F)F)cc1 [Compound 8A, S-riva-fluvoxamine]",
    "units_text": "%",
    "BuChE I (%) 10 μM": 6
  },
  {
    "molecule": "COc1ccccc1CC(C)N(C)C(=O)Oc1cccc([C@H](C)N(C)C)c1 (some centres unmarked) [Compound 15, S-riva-methoxyphenamine]",
    "units_text": "%",
    "BuChE I (%) 10 μM": 30
  },
  {
    "molecule": "C#CCN(C(=O)Oc1ccc2c(c1)[C@]1(C)CCN(C)[C@@H]1N2C)[C@H](C)Cc1ccccc1 [Compound 18, Physo-desmethylselegiline]",
    "units_text": "%",
    "BuChE I (%) 10 μM": 8
  },
  {
    "molecule": "C[C@@H](c1cccc(OC(=O)N(C)CCCC2c3ccccc3C=Cc3ccccc32)c1)N(C)C [Compound 6A, S-riva-protriptyline]",
    "units_text": "%",
    "BuChE I (%) 10 μM": 53
  }
]

Given item C[C@@H](c1cccc(OC(=O)N(C)CCC(Oc2ccc(C(F)(F)F)cc2)c2ccccc2)c1)N(C)C (some centres unmarked) [Compound 7A, S-riva-fluoxetine] , the value recorded as its BuChE I (%) 10 μM is 15

Given item C[C@@H](c1cccc(OC(=O)N(C)CCC=C2c3ccccc3CCc3ccccc32)c1)N(C)C [Compound 5A, S-riva-nortriptyline] , the value recorded as its BuChE I (%) 10 μM is 55
